Quick reference: pKd of the listed items.
- Study target: SARS-CoV-2 spike protein (SARS-CoV-2, UniProt P0DTC2 14-1208)
Interpret pKd as the negative base-10 log of the concentration measured in mol/L.

Worked set:
• antibody 441 (antibody, V domains shown) VH: EVQLVESGGGVVRPGGSLRLSCAASGFTFGDYGMSWVRQAPGKGLEWVSGINWNGGSTGYADSVKGRFTISRDNAKNSLYLQMNSLRAEDTALYYCASDLVRGVIGFDYWGQGTLVTVSS VL: SYELTQPPSVSVSPGQTARITCSGDALPKQYAYWYQQKPGQAPVLVIYKDSERPSGIPERFSGSSSGTTVTLTISGVQAEDEADYYCQSADSSGITGVFGGGTKLTVL = 8.46
• antibody 394 (antibody, V domains shown) VH: QVQLVQSGAEVKKPGASVKVSCKASGYTFTGYYMHWVRQAPGQGLEWMGWINPNNGGTNSAQKFQGRVTMTRDTSISTAYMELNRLRSDDTAVYYCARDITTTAGTDYYYGMDVWGQGTTVTVSS VL: SYELTQPPSVSVSPGQTARITCSGDALPKQYAYWYQQKPGQAPVLVICKDSERPSGIPERFSGSSSGTTVTLTISGVQAEDEADYYCQSADSSGTYIVFGTGTKVTVL = 8.88

[ask] # query: pKd of entry antibody 453 (antibody, V domains shown) VH: QVQLVESGGGVVQPGRSLRLSCAASGFTFSSYAMYWVRQAPGKGLEWVAVISYDGSNKYYADSVKGRFTISRDNSKNTLYLQMNSLRAEDTAVYYCARDRPHYYGSGRKILNLYGMDVWGQGTTVTVSS VL: DIQLTQSPSFLSASVGDRVTITCRASQGISSYLAWYQQKPGKAPKLLIYAASTLQSGVPSSFSGSGSGTEFTLTISSLQPEDFATYYCQQLNSYPPFTFGPGTKVDIK
[reply] 8.79

[ask] Could you share which pKd value was measured for antibody 481 (antibody, V domains shown) VH: EVQLVESGGGLIQPGGSLRLSCAASGFTVSSNYMSWVRQAPGKGLEWVSVIYSGGSTFYADSVKGRFTISRDNSKNTLYLQMNSLRAEDTAVYYCAREVAGTYDYWGQGTLVTVSS VL: DIQMTQSPSSVSASVGDRVTITCRASQGISSWLAWYQQKPGKAPKLLIYAASSLQSGVPSRFSGSGSGTDFTLTISSLQPEDFATYYCQQANSFPGGTFGPGTKVDIKR ?
[reply] 9.56
